// data source = ChEMBL document CHEMBL1157539

Catalogue of XC50 values
# System: Plasmodium falciparum
# experiment_description: GSK_TCMDC: Inhibition of Plasmodium falciparum 3D7 in whole erythrocytes, using parasite LDH activity as an index of growth.
# Assay type: functional, organism-based
# condition_summary: Plasmodium falciparum, 3D7

molecule: CC(=O)Nc1cccc(C(=O)Nc2cccc(-c3ccc(-c4nc5cc(C(F)(F)F)ccc5[nH]4)s3)c2)c1
XC50, nM: 652
--
molecule: OC(CNc1ccnc(Nc2cccc(Cl)c2)n1)c1ccc(C(F)(F)F)cc1 (stereo not given)
XC50, nM: 768
--
molecule: Cc1cc(=O)c2cc(Oc3ccc(OC(F)(F)F)cc3)ccc2[nH]1
XC50, nM: 990
--
molecule: COc1ccc(CNCCc2cccs2)cc1-c1ccc(S(=O)(=O)NCCN2CCCC2)s1
XC50, nM: 877
--
molecule: Cc1cccc2nc(-c3ccc(-c4ccc(NC(=O)Nc5ccc(F)c(F)c5F)cc4)s3)[nH]c12
XC50, nM: 176
--
molecule: Cc1cccc(C(=O)NCCCN2CCC(NC(=O)/C=C/c3ccc(Cl)c(Cl)c3)CC2)c1
XC50, nM: 1700
--
molecule: CCn1c(SCC(=O)Nc2cc(C(F)(F)F)ccc2Cl)nc2ccccc2c1=O
XC50, nM: 397
--
molecule: Cc1ccc(C)c(S(=O)(=O)Nc2ccc(Br)cc2C(=O)Nc2cccc(C(F)(F)F)c2)c1
XC50, nM: 1210
--
molecule: CCOC(=O)N1CCN(CCCNc2c3ccc(Cl)cc3nc3ccc(OC)cc23)CC1
XC50, nM: 104
--
molecule: Cc1cc(-c2nc3cncc(-c4cccc(CN5CCCC5Cc5cccnc5)c4)c3n2C)nn1C (stereo not given)
XC50, nM: 132
--
molecule: O=C(/C=C/c1ccc(Cl)c(Cl)c1)N1CCC(CN2CCC(Cc3c[nH]c4ccccc34)CC2)CC1
XC50, nM: 674
--
molecule: CN1CCCc2cc(NC(=O)c3cc(-c4ccc(Cl)cc4)cs3)ccc2C1
XC50, nM: 810
--
molecule: CN(C)CCOc1ccc(NC(=O)Nc2ccnc3c(Br)cccc23)cc1Cl
XC50, nM: 842
--
molecule: COc1cc2nc(-c3ccc(Br)cc3)cc(N)c2cc1OC
XC50, nM: 173
--
molecule: O=C(Nc1ccc2c(c1)CCN2C1CCN(Cc2cccc(C(F)(F)F)c2)C1)c1ccco1 (stereo not given)
XC50, nM: 564
--
molecule: O=S(=O)(c1ccccc1C(F)(F)F)C1CC2CCC(C1)N2S(=O)(=O)c1ccc(Cl)c(C(F)(F)F)c1 (stereo not given)
XC50, nM: 706
--
molecule: O=C(Nc1cccc(-c2ccc(CN3CCC(O)CC3)cc2)c1)c1cccc(Cl)c1
XC50, nM: 764
--
molecule: O=C(Nc1cc(Cl)ccc1O)c1cnn2c(C(F)(F)F)cc(-c3cccs3)nc12
XC50, nM: 859
--
molecule: OCCNc1nc(Nc2ccccc2)nc2ccccc12
XC50, nM: 128
--
molecule: CN(C)CCOc1ccc(-c2cc(-c3ccc(Cl)c(O)c3)c(-c3ccncc3)[nH]2)cc1
XC50, nM: 580
